Target system: T1, recombinant human TL1A (human, UniProt O95150 71-251)
T1 construct: homotrimer; biotinylated for SPR capture; the ELISA paragraphs say only 'recombinant TL1A'; also called TNFSF15
T1 chain: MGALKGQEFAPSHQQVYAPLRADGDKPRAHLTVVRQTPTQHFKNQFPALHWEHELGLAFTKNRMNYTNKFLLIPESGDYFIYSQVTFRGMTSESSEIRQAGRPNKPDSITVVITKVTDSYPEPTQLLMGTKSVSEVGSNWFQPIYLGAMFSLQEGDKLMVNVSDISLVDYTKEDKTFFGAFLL
Protocol notes: competition ELISA vs bio-TL1A-0002

Binder	IC50
TL1A-0088 (antibody, IgG1, V domains shown, IgG1/kappa variant of TL1A-0002) VH: QVQLVQSGAEVKKPGASVKVSCKASGYDFTYYGISWVRQAPGQGLEWMGWISTYGGNTHYAPSLQGRVTMTTDTSTRTAYMELRSLRSDDTAVYYCARENYYGSGAYRGGMDVWGQGTTVTVSS VL: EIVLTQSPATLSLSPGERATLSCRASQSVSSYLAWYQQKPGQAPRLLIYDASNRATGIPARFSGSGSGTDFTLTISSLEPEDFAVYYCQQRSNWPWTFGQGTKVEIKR	6.5 nM
TL1A-0160 (antibody, IgG1, V domains shown, IgG1/kappa variant of TL1A-0002) VH: QVQLVQSGAEVKKPGASVKVSCKASGYDFTYYGISWVRQAPGQGLEWMGWISTYNGNEHYAPSLQGRVTMTTDTSTRTAYMELRSLRSDDTAVYYCARENYYGSGLYRGGMDVWGQGTTVTVSS VL: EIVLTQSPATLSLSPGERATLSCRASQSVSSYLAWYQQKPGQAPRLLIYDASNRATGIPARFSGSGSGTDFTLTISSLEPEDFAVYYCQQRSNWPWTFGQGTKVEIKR	9.1 nM
TL1A-0085 (antibody, IgG1, V domains shown, IgG1/kappa variant of TL1A-0002) VH: QVQLVQSGAEVKKPGASVKVSCKASGYDFTYYGISWVRQAPGQGLEWMGWASTYNGNTHYAQKLQGRVTMTTDTSTRTAYMELRSLRSDDTAVYYCARENYYGSGAYRGGMDVWGQGTTVTVSS VL: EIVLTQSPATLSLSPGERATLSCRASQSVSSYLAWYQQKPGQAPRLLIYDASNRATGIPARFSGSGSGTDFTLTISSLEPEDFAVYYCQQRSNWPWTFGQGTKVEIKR	4.7 nM
TL1A-0069 (antibody, IgG1, V domains shown, IgG1/kappa variant of TL1A-0002) VH: QVQLVQSGAEVKKPGASVKVSCKASGYDFTYHGISWVRQAPGQGLEWMGWISTYNGNTHYARMLQGRVTMTTDTSTRTAYMELRSLRSDDTAVYYCARENYYGSGAYRGGMDVWGQGTTVTVSS VL: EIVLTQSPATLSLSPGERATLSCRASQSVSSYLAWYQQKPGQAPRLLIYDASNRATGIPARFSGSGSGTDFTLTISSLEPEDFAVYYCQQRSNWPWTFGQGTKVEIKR	4.1 nM
TL1A-0076 (antibody, IgG1, V domains shown, IgG1/kappa variant of TL1A-0002) VH: QVQLVQSGAEVKKPGASVKVSCKASGYDFTYYGISWVRQAPGQGLEWMGWISTYNDNTHYAPSLQGRVTMTTDTSTRTAYMELRSLRSDDTAVYYCARENYYGSGAYRGGMDVWGQGTTVTVSS VL: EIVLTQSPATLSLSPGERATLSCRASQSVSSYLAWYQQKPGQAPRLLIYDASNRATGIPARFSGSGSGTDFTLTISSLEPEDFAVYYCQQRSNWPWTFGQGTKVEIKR	5.4 nM
TL1A-0031 (antibody, IgG1, V domains shown, IgG1/kappa variant of TL1A-0002) VH: QVQLVQSGAEVKKPGASVKVSCKASGYDFTYYGISWVRQAPGQGLEWMGWISTYNGNTHYARMLQGRVTMTTDTSTRTAYMELRSLRSDDTAVYYCARENYYGSGDYRGGMDVWGQGTTVTVSS VL: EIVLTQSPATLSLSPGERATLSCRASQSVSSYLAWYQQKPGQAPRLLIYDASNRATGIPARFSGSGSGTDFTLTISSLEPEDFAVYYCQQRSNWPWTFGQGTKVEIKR	7.4 nM
TL1A-0079 (antibody, IgG1, V domains shown, IgG1/kappa variant of TL1A-0002) VH: QVQLVQSGAEVKKPGASVKVSCKASGYDFTYYGISWVRQAPGQGLEWMGWISTYQGNTHYARMLQGRVTMTTDTSTRTAYMELRSLRSDDTAVYYCARENYYGSGAYRGGMDVWGQGTTVTVSS VL: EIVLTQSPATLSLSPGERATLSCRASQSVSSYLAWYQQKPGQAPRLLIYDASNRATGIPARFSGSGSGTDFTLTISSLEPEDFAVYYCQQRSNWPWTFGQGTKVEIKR	5.8 nM
TL1A-0193 (antibody, IgG1, V domains shown, IgG1/kappa variant of TL1A-0002) VH: QVQLVQSGAEVKKPGASVKVSCKASGYDFTYYGISWVRQAPGQGLEWMGWISTYNGNTHYARMLQGRVTMTTDTSTRTAYMELRSLRSDDTAVYYCAREQYYGSGEYRGGMDVWGQGTTVTVSS VL: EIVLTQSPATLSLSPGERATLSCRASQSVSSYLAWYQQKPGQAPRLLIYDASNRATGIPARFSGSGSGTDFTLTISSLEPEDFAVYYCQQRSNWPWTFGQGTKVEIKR	12 nM
TL1A-0002 (antibody, human IgG1, kappa, V domains shown, human IgG1/kappa, effector function minimized; also called bioTL1A-0002 (biotinylated)) VH: QVQLVQSGAEVKKPGASVKVSCKASGYDFTYYGISWVRQAPGQGLEWMGWISTYNGNTHYARMLQGRVTMTTDTSTRTAYMELRSLRSDDTAVYYCARENYYGSGAYRGGMDVWGQGTTVTVSS VL: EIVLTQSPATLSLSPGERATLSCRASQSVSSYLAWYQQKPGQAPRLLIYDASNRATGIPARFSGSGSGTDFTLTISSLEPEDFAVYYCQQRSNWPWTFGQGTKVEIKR	4.5 nM
TL1A-0147 (antibody, IgG1, V domains shown, IgG1/kappa variant of TL1A-0002) VH: QVQLVQSGAEVKKPGASVKVSCKASGYDFTYYGISWVRQAPGQGLEWMGWISTYNGNEHYAQKLQGRVTMTTDTSTRTAYMELRSLRSDDTAVYYCARENYYGSGAYRGGMDVWGQGTTVTVSS VL: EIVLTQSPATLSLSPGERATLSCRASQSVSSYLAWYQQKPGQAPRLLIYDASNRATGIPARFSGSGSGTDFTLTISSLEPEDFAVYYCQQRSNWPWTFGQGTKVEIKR	7.2 nM

Reference for the values: patent US20240059799A1
